Recorded Kd, one value per entry.
- targetOfAssay: T1, ScPif1p R326C (Saccharomyces cerevisiae, UniProt P07271 237-780, R326C)
- T1 sequence: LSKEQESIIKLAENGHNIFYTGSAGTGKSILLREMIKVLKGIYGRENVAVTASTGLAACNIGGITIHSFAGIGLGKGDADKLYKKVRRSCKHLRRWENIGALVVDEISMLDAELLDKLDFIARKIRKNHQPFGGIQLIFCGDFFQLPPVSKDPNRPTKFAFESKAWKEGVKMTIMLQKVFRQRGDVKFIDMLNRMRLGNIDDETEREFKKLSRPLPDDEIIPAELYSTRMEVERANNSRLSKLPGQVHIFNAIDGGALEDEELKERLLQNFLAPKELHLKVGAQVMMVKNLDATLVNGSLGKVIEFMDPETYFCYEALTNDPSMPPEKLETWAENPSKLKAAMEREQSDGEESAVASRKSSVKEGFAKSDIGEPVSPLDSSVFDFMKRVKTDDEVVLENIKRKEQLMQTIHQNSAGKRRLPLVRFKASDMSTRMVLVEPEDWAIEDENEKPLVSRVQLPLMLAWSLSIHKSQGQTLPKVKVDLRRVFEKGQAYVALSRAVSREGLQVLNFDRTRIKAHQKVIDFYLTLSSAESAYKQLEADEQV
- experimentDescription: fluorescence anisotropy
Report as a plain number; the unit nM is understood.

For orientation, consider the following solved cases.
GTGTGTGTGGTG (ssDNA) [GR12]; 12.4
dsDNA16bp (dsDNA) DNA 1: CTCTGCTCGACGGATT DNA 2: AATCCGTCGAGCAGAG; 78.3

Lab note: next binder to report on.
Quick one: Kd of AGGGTGGGTGGGTGGGT (structured_DNA) [F-G417] ?
105
